The following molecules are listed with their measured Activity values.
- System: Escherichia coli
- test_description: Inhibition of Escherichia coli MurD ligase catalyzed addition of D-Glu to UDP-MurNAc-L-Ala assessed as residual activity at 500 uM after 15 mins by colorimetric analysis

Recorded Activity, per entry:
O=C(O)CC[C@@H](NC(=O)c1cccc(CNc2ccc(OCC(=O)O)cc2)c1)C(=O)O
87%
O=C(O)CC[C@@H](NC(=O)c1ccc2ccn(Cc3ccc(OCC(=O)O)cc3)c2c1)C(=O)O
94%
O=C(O)CC[C@@H](NC(=O)c1cccc(CNc2cccc(OCC(=O)O)c2)c1)C(=O)O
89%

Which Activity value is on record for N=C1NC(=O)/C(=C/c2ccc(NCc3cccc(C(=O)N[C@H](CCC(=O)O)C(=O)O)c3)cc2)S1 ?
85%
